# credit: paper PMC12392461

Item-by-item account of Cparent-Ratio Rep.2
Assay: Abiotic CYP (aCYP) oxidation, remaining parent compound (Cparent-Ratio)
Conditions: Table S9, replicate 2, as fraction
Answer with a bare number; do not write a unit.

O=S(=O)(c1ccc(O)cc1)c1ccccc1O    1.01

Qu. Provide only the value of recorded Cparent-Ratio Rep.2 for Cc1cc(Cc2cc(C)c(O)c(C)c2)cc(C)c1O [TMBPF, Bis(3,5-dimethyl-4-hydroxyphenyl)methane]
Ans. 0.79

Qu. Provide only the value of recorded Cparent-Ratio Rep.2 for CC(C)c1cc(C(C)(C)c2ccc(O)c(C(C)C)c2)ccc1O
Ans. 1.02

Qu. Provide only the value of recorded Cparent-Ratio Rep.2 for COC(=O)C(c1ccc(O)cc1)c1ccc(O)cc1 [Bz, Methyl bis(4-hydroxyphenyl)acetate]
Ans. 1.00

Qu. Provide only the value of recorded Cparent-Ratio Rep.2 for Cc1ccc(S(=O)(=O)NC(=O)Nc2ccc(Cc3ccc(NC(=O)NS(=O)(=O)c4ccc(C)cc4)cc3)cc2)cc1
Ans. 0.34

Qu. Provide only the value of recorded Cparent-Ratio Rep.2 for Cc1ccc(S(=O)(=O)NC(=O)Nc2cccc(OS(=O)(=O)c3ccc(C)cc3)c2)cc1
Ans. 0.46

Qu. Provide only the value of recorded Cparent-Ratio Rep.2 for CC(C)(c1ccc(O)c(-c2ccccc2)c1)c1ccc(O)c(-c2ccccc2)c1 [BPPH, 2,2-Bis(2-hydroxy-5-biphenylyl)propane]
Ans. 0.67

Qu. Provide only the value of recorded Cparent-Ratio Rep.2 for CC1(C)[C@H](O)C(C)(C)[C@H]1O
Ans. 1.09

----------
Item-by-item account of IC10, linear transformed
Test system: SH-SY5Y cells
Conditions: NOI bioassay cytotoxicity; dosing range all
Experimental: Cell culture conditions and bioassay protocols including response detection are provided in Text S2.1–2.4 and Table S3. − Cell viability was determined from cell confluency using an IncuCyte S3 Live-Cell Analysis System (Sartorius AG, Essen, Germany) before and after exposure, except for SH-SY5Y cells (live–dead staining with Nuclear Green LcS1 and propidium iodide, Abcam, UK). […] This method has been described previously 13. Cell viability of SH-SY5Y cells was measured […]

Example entries begin here.
COC(=O)C(c1ccc(O)cc1)c1ccc(O)cc1 [Bz, Methyl bis(4-hydroxyphenyl)acetate]    5.07E-04
Oc1ccc(C(c2ccc(O)cc2)(C(F)(F)F)C(F)(F)F)cc1    6.64E-05

Qu. Provide only the value of recorded IC10, linear transformed for CC(C)(c1ccc(O)c(-c2ccccc2)c1)c1ccc(O)c(-c2ccccc2)c1 [BPPH, 2,2-Bis(2-hydroxy-5-biphenylyl)propane]
Ans. 2.31E-05

Qu. Provide only the value of recorded IC10, linear transformed for Oc1ccc(C2(c3ccc(O)cc3)CCCCC2)cc1 [BPZ, 1,1'-Bis(4-hydroxyphenyl)cyclohexane]
Ans. 7.89E-05

----------
Tested on: MCF7 (ARE/MMP)
Settings: MMP bioassay cytotoxicity; dosing range all; log-logistic model
Item-by-item account of logIC10
Answer with a bare number; do not write a unit.

Qu. Provide only the value of recorded logIC10 for O=S(=O)(c1ccc(O)cc1)c1ccc(OCc2ccccc2)cc1 [BPS-MPE, 4-[4-(benzyloxy)benzenesulfonyl]phenol]
Ans. -3.91

----------
Tested on: HEK293T (ERα)
Settings: Bioassay ERα; cytotoxicity; dosing range all; linear model fit
Experimental endpoint: IC10, linear
Answer with a bare number; do not write a unit.

Oc1ccc(Sc2ccc(O)cc2)cc1    2.43E-05

Qu. Find IC10, linear for CC(c1ccc(O)cc1)c1ccc(O)cc1 on HEK293T (ERα) and write it down.
Ans. 6.74E-05

Qu. Find IC10, linear for C=CCOc1ccc(S(=O)(=O)c2ccc(O)cc2)cc1 [BPS-MAE, 4-[[4-(Allyloxy)phenyl]sulfonyl]phenol] on HEK293T (ERα) and write it down.
Ans. 2.44E-04

Qu. Find IC10, linear for Oc1ccc(Cc2ccc(O)cc2)cc1 [BPF, Bis(4-hydroxyphenyl)methane] on HEK293T (ERα) and write it down.
Ans. 1.61E-04

Qu. Find IC10, linear for O=S(=O)(c1ccc(O)cc1)c1ccc(OCc2ccccc2)cc1 [BPS-MPE, 4-[4-(benzyloxy)benzenesulfonyl]phenol] on HEK293T (ERα) and write it down.
Ans. 1.12E-04

Qu. Find IC10, linear for Cc1ccc(S(=O)(=O)NC(=O)Nc2ccc(Cc3ccc(NC(=O)NS(=O)(=O)c4ccc(C)cc4)cc3)cc2)cc1 on HEK293T (ERα) and write it down.
Ans. 3.66E-05
